- System: SETVI, Green foxtail, Setaria viridis, (L.)Beau
- Assay notes: Preemergence herbicidal evaluation (Example 148)
- Format: in vivo
- Test conditions: rate 0.25 kg/ha, rating scale 0-9, two to four weeks after treatment
- Method: The scale is based upon a visual observation of plant stand, vigor, malformation, size, chlorosis and overall plant appearance as compared with a control. The herbicidal activity of the compounds of the present invention was evaluated by the following tests wherein the seeds of a variety of monocotyledonous and dicotyledonous plants were separately mixed with potting soil and planted on top of approximately one inch of soil in separate pint cups. […]
Preemergence herbicidal rating SETVI vs 6: less than gives 1; not less than gives 0.

Please check: Preemergence herbicidal rating SETVI for CN(c1ccccc1)S(=O)(=O)NC(=O)c1cc(-n2c(=O)cc(C(F)(F)F)n(C)c2=O)c(F)cc1Cl [Example 73] , strictly under 6 or not?
1

Please check: Preemergence herbicidal rating SETVI for C=CCN(C)S(=O)(=O)NC(=O)c1cc(-n2c(=O)cc(C(F)(F)F)n(C)c2=O)c(F)cc1Cl [Example 59] , strictly under 6 or not?
0

Please check: Preemergence herbicidal rating SETVI for CNS(=O)(=O)NC(=O)c1cc(-n2c(=O)cc(C(F)(F)F)n(C)c2=O)c(F)cc1Cl [Example 56] , strictly under 6 or not?
0

Please check: Preemergence herbicidal rating SETVI for CC(C)CCNS(=O)(=O)NC(=O)c1cc(-n2c(=O)cc(C(F)(F)F)n(C)c2=O)c(F)cc1Cl [Example 72] , strictly under 6 or not?
0

Please check: Preemergence herbicidal rating SETVI for CC(C)N(C(C)C)S(=O)(=O)NC(=O)c1cc(-n2c(=O)cc(C(F)(F)F)n(C)c2=O)c(F)cc1Cl [Example 60] , strictly under 6 or not?
0

Please check: Preemergence herbicidal rating SETVI for Cn1c(C(F)(F)F)cc(=O)n(-c2cc(C(=O)NS(=O)(=O)NC3CCCC3)c(Cl)cc2F)c1=O [Example 78] , strictly under 6 or not?
0

Please check: Preemergence herbicidal rating SETVI for CC(C)N(C)S(=O)(=O)NC(=O)c1cc(-n2c(=O)cc(C(F)(F)F)n(N)c2=O)c(F)cc1Cl [Example 76] , strictly under 6 or not?
1

Please check: Preemergence herbicidal rating SETVI for CCCNS(=O)(=O)NC(=O)c1cc(-n2c(=O)cc(C(F)(F)F)n(C)c2=O)c(F)cc1Cl [Example 63] , strictly under 6 or not?
0

Please check: Preemergence herbicidal rating SETVI for CN(CCC#N)S(=O)(=O)NC(=O)c1cc(-n2c(=O)cc(C(F)(F)F)n(C)c2=O)c(F)cc1Cl [Example 84] , strictly under 6 or not?
0

Please check: Preemergence herbicidal rating SETVI for C#CCN(C)S(=O)(=O)NC(=O)c1cc(-n2c(=O)cc(C(F)(F)F)n(C)c2=O)c(F)cc1Cl [Example 57] , strictly under 6 or not?
1

---

- Tested on: ZEAMX, Field corn, Zea mays L.
- Assay notes: Preemergence herbicidal evaluation (Example 148)
- Format: in vivo
- Test conditions: rate 0.25 kg/ha, rating scale 0-9, two to four weeks after treatment
Answer each item with its documented Preemergence herbicidal rating ZEAMX.
# print the numeric value only

For the compound CCCN(C)S(=O)(=O)NC(=O)c1cc(-n2c(=O)cc(C(F)(F)F)n(C)c2=O)c(F)cc1Cl [Example 67] , report Preemergence herbicidal rating ZEAMX.
1.0

For the compound CCNS(=O)(=O)NC(=O)c1cc(-n2c(=O)cc(C(F)(F)F)n(C)c2=O)c(F)cc1Cl [Example 80] , report Preemergence herbicidal rating ZEAMX.
0.0

For the compound CN(c1ccccc1)S(=O)(=O)NC(=O)c1cc(-n2c(=O)cc(C(F)(F)F)n(C)c2=O)c(F)cc1Cl [Example 73] , report Preemergence herbicidal rating ZEAMX.
0.0

For the compound CCN(CC)S(=O)(=O)NC(=O)c1cc(-n2c(=O)cc(C(F)(F)F)n(C)c2=O)c(F)cc1Cl [Example 68] , report Preemergence herbicidal rating ZEAMX.
2.0
